# test_summary: qHTS RealTime-Glo MT Cell Viability Assay in HepG2 cells - 24 hour (AID 1224867); further: on the % scale 0 is the no-effect control and ±100 the full control effect; nearly all actives have a fitted effect of over 50% in size
# assay_setup: RealTime-Glo luminescence; series mostly up to 76.8 µM
Results filed as inconclusive are left out. Activity calls are given as the source filed them. The call rests on the fitted dose curve; in most records, active means well fitted cell-killing curve with a large enough effect in the repeat runs; inconclusive means weak or mixed curves; inactive means flat fitted curve, though single readings scatter.
outcome_measure: outcome

Please review the entries below; each comes with its answer.
Value of measured outcome for the entry CC(C)Nc1cccnc1N1CCN(C(=O)c2cc3cc(NS(C)(=O)=O)ccc3[nH]2)CC1 : inactive

Value of measured outcome for the entry CCOC(=O)c1ccc(OCCN2C[C@H](O)[C@@H](O)[C@H](O)[C@H]2CO)cc1 : inactive

Value of measured outcome for the entry Cc1cscn1 : inactive

Value of measured outcome for the entry COc1cc(C(=O)NCCCCCC(=O)O)cc(OC)c1OC : inactive

Value of measured outcome for the entry CCCCC(CC)CN (configuration not stated) : inactive

Value of measured outcome for the entry CCC=CC#N : inactive

Others:
Value of measured outcome for the entry CC1=C(Br)C(=O)C(Br)=C/C1=C(/c1ccccc1S(=O)(=O)O)c1cc(Br)c(O)c(Br)c1C : inactive

Value of measured outcome for the entry CCCCC(CC)COP(=O)(O)O (configuration not stated) : inactive

Value of measured outcome for the entry Cc1cccc(N(C)C(=S)Oc2ccc3c(c2)CCC3)c1 : inactive

Value of measured outcome for the entry OC(CCN1CCCC1)(c1ccccc1)C1CCCCC1 (configuration not stated) : inactive

Value of measured outcome for the entry O=C(Cn1ccnc1[N+](=O)[O-])NCCO : inactive

Value of measured outcome for the entry COc1ccccc1Oc1c(NS(=O)(=O)c2ccc(C(C)(C)C)cc2)nc(-c2ncccn2)nc1OCCO : inactive

----------
# test_summary: qHTS assay to test for compound auto fluorescence at 535 nm (green) in HEK293 cell free culture (AID 720682); further: on the % scale 0 is the no-effect control and ±100 the full control effect
# assay_setup: cell-free medium, green autofluorescence 485/535 nm, stronger effect = higher value; series mostly up to 91.3 µM
Active and inactive are the calls of the source. The call rests on the fitted dose curve; in most records, active means well fitted curve in the direction sought with a large enough effect in the repeat runs; inconclusive means weak or mixed curves; inactive means flat fitted curve, though single readings scatter.
outcome_measure: activity change

Please review the entries below; each comes with its answer.
Value of measured activity change for the entry c1ccc(C[n+]2cccc3ccccc32)cc1 : inactive

Value of measured activity change for the entry COc1cc(Nc2c(C#N)cnc3cc(OCCCN4CCN(C)CC4)c(OC)cc23)c(Cl)cc1Cl : inactive

Value of measured activity change for the entry O=c1[nH]ncc2ccccc12 : inactive

Value of measured activity change for the entry CN1CCCC(CC2c3ccccc3Sc3ccccc32)C1 (stereo unspecified) : 0.123% [at 18.6 µM] (inactive)

Others:
Value of measured activity change for the entry CC(=O)OCCN(CCOC(C)=O)c1ccc(N=Nc2ccc([N+](=O)[O-])cc2C#N)cc1 : inactive

Value of measured activity change for the entry CCC1(CO)COCOC1 : inactive

----------
# test_summary: qHTS RealTime-Glo MT Cell Viability Assay in HEK293 cells - 32 hour (AID 1224868); further: nearly all actives have a fitted effect of over 50% in size
# assay_setup: RealTime-Glo luminescence; series mostly up to 76.8 µM
Inconclusive results are not listed. Calls of active or inactive are those of the source. The call rests on the fitted dose curve; in most records, active means well fitted cell-killing curve with a large enough effect in the repeat runs; inconclusive means weak or mixed curves, or effect the other way; inactive means flat fitted curve, though single readings scatter.
Please reply with one of these outcomes: active, inactive

Dear colleague, could you share the recorded outcome for CC(=O)Oc1ccc([N+](=O)[O-])cc1CCl when you have a moment? active

Dear colleague, could you share the recorded outcome for O=C(O)c1cccc(-c2noc(-c3ccccc3F)n2)c1 when you have a moment? inactive

Dear colleague, could you share the recorded outcome for C1C[C@@H]2[C@H]3CC[C@H](C3)[C@@H]2C1 when you have a moment? inactive

Dear colleague, could you share the recorded outcome for C[C@@H](O[C@H]1OCCN(Cc2n[nH]c(=O)[nH]2)[C@H]1c1ccc(F)cc1)c1cc(C(F)(F)F)cc(C(F)(F)F)c1 when you have a moment? active

Dear colleague, could you share the recorded outcome for O=C1c2ccccc2C(=O)C1(O)O when you have a moment? inactive

Dear colleague, could you share the recorded outcome for COc1cc(N)c(Cl)cc1C(=O)NC1CCN(CCCOc2ccc(F)cc2)CC1OC (stereo not given) when you have a moment? active

Dear colleague, could you share the recorded outcome for CCCCCCCCN when you have a moment? inactive

Dear colleague, could you share the recorded outcome for CC=C(Cl)Cl when you have a moment? inactive

Others:
Dear colleague, could you share the recorded outcome for Cc1cc(C)cc(N)c1 when you have a moment? inactive

Dear colleague, could you share the recorded outcome for CCCCCC[C@@H](O)C/C=C\CCCCCCCC(=O)O when you have a moment? inactive
